Origin of the recorded values: patent US20130259876A1

- system tested: HLA-B*2705 expressed on C1R-neo cells (human, UniProt P01889 25-362; P61769 21-119)
- measurement protocol: ECL cell binding, C1R-neo B*2705 cells, pH 6.0; separate day
property name: max RLU (RLU)
Just the number please, in RLU, no unit attached.

Previously resolved entries follow.
H4H2499N4 (antibody, V domains shown) VH: QVQLVESGGGLVKPGGSLRLSCAASGFTFSDHYMSWIRQAPGKGLEWVSYISHSGSTIYYPDSVKGRFTISRDNAKNSLNLQMNSLRAEDTAVYYCLLHYYYGMDVWGQGTTVTVSS VL: EIVLTQSPATLSLSPGERAPLSCRASQSVSSYLAWYQQKPGQPPRLLIYDASNRATGIPARFSGSGSGTDFTLTISSLEPEDFAVYYCQQRSNWPWTFGQGTKVEIK    10300
H4H2499N21 (antibody, V domains shown) VH: QVQLVESGGGLVKPGGSLRLSCAASGFTFSDYYMSWIRQAPGKGLEWVSYISTSGSTIYYPDSVKGRFTISRDNAKNSLNLQMNSLRAEDTAVYYCLLHHYYGHDHWGQGTTVTVSS VL: EIVLTQSPATLSLSPGERAPLSCRASQSVSSYLAWYQQKPGQPPRLLIYDASNRATGIPARFSGSGSGTDFTLTISSLEPEDFAVYYCQHRHNWPWHFGQGTKVEIK    9680

Alright, here's another binder for you.
Field request: max RLU | item: H4H2499N12 (antibody, V domains shown) VH: QVQLVESGGGLVKPGGSLRLSCAASGFTFSDYYMSWIRQAPGKGLEWVSYISTSGSTIYYPDSVKGRFTISRDNAKNSLNLQMNSLRAEDTAVYYCLLHYYYGMDVWGQGTTVTVSS VL: EIVLTQSPATLSLSPGERAPLSCRASQSVSSYLAWYQQKPGQPPRLLIYDASNRATGIPARFSGSGSGTDFTLTISSLEPEDFAVYYCQQRHHWPWHFGQGTKVEIK
31900
